# target: Fyn (UniProt P06241)
# Sequence (P06241 whole entry, looked up): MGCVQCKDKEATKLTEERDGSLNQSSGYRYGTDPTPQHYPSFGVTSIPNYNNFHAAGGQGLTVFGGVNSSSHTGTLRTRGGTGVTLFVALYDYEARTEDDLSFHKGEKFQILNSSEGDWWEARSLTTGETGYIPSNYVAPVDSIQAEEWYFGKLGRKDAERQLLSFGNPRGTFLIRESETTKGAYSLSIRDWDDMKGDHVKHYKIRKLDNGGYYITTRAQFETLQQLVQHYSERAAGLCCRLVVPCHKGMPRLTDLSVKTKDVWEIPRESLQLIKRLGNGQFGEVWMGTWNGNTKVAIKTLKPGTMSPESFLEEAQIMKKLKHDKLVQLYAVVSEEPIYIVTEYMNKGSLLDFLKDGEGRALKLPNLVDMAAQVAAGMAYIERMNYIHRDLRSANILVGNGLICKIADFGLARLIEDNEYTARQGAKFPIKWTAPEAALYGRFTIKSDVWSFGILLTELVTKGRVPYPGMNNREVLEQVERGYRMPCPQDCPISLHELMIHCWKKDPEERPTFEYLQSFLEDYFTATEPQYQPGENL
# method_description: phosphorylation enrichment, bacterial display (enrichment ratio); higher = better substrate or ligand; peptides without Tyr show the background;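 also: 11-residue human phosphosite peptides and single-mutation variants displayed on the E. coli surface, counted by deep sequencing, each peptide's frequency after selection divided by its frequency in the unselected input library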;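 also: frequency after pTyr selection over input frequency; kinase dosed for 20-30% of maximal phosphorylation in three min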
reported_endpoint: phosphorylation enrichment
Give bare numbers.

1. ASMAKYYASEI [ACADSB_Y372] = 0.491
2. RHLLRYLSWTV [CLCNKB_Y93_S88R] = 0.507

So for FPKARYHWLVL [APTX_Y214_YF] , the logged phosphorylation enrichment turned out to be 0.491

---

# Tested on: c-Abl (mouse)
# method_description: phosphorylation enrichment, bacterial display (enrichment ratio); higher = better substrate or ligand; peptides without Tyr show the background
The label depends only on phosphorylation enrichment: Yes if it is at least 1, No if it is smaller.

1. GKGGSYSQAAC [HLA-B_Y344] = No
2. EPFELYCEMGS [CBL_Y371_Q367P_YF] = No
3. NDLMEYPKQHG [ASS1_Y163_A164P] = No

Prompt line: Kindly determine if phosphorylation enrichment recorded for PRDSGYSFETI [MAP1B_Y1921_S1917R_YF] is above or exactly 1.
Response line: Yes

Prompt line: Kindly determine if phosphorylation enrichment recorded for SVVVPYEPPEI [TP53_Y220_V225I] is above or exactly 1.
Response line: No

Prompt line: Kindly determine if phosphorylation enrichment recorded for KHMADYPDCKY [SOX11_Y113_Y116C] is above or exactly 1.
Response line: Yes

Prompt line: Kindly determine if phosphorylation enrichment recorded for GPTLSYGRDGR [MATR3_Y158] is above or exactly 1.
Response line: No
